TGI listing for selected molecules.
System: OVCAR-3 ovarian
experiment: NCI tumour cell line growth inhibition, 48 h

The cases that follow already have their TGI on record.
>  <molecule>
CC(=O)OCCOCNC(=S)N/N=C/c1cc([N+](=O)[O-])ccc1O

>  <reading>
> 100 µM

$$$$
>  <molecule>
CN(C)Cc1cc(C(=O)/C=C/c2ccc(Cl)c(Cl)c2)cc(CN(C)C)c1O

>  <reading>
5.46 µM

$$$$
>  <molecule>
C=CC(=O)NC(N)=NC#N

>  <reading>
310 µM

$$$$

Incoming: Requested read-out TGI, target or system OVCAR-3 ovarian, entry Cn1cc(-c2nc(-c3c[nH]c4ncccc34)cs2)c2ccccc21
Outgoing: 24.7 µM

Incoming: Requested read-out TGI, target or system OVCAR-3 ovarian, entry Cc1cc(=O)oc2c(CNC(CO)C(=O)O)c(O)ccc12 (centres undefined)
Outgoing: > 100 µM

Incoming: Requested read-out TGI, target or system OVCAR-3 ovarian, entry CSc1nn(C)cc2ncnc1-2
Outgoing: > 100 µM

Incoming: Requested read-out TGI, target or system OVCAR-3 ovarian, entry COc1cc(/C=C2\N=C(c3ccccc3)N(c3ccc(C(=O)c4ccccc4)cc3N3C(=O)/C(=C/c4ccc(O)c(OC)c4)N=C3c3ccccc3)C2=O)ccc1O
Outgoing: 8.7 µM

Incoming: Requested read-out TGI, target or system OVCAR-3 ovarian, entry N#Cc1ccc(-c2nc3c(N)nc(-c4ccccc4)nc3o2)cc1
Outgoing: > 100 µM

Values compiled from PubChem BioAssay (NCI).
